# Test system: K562 CRISPRi cells
# experiment: Perturb-seq pooled growth measurement (sgRNA counts, growth phenotype γ, relative activity)
# Format: cell-based, human
# condition_info: sequencing read counts; 5 days of growth (day seven after transduction)
Would you mind telling me the reported Perturb-seq pooled growth sgRNA counts, d5 of each entry?

RAN_+_131356438.23-P1P2_02: sgRNA targeting RAN, GGCGGCCGCTGCGCTTAGGG, SEQ ID NO: 70 (listed as DNA, chemistry not fully specified): 15046
EIF2S1_−_67827080.23-P1P2_00: sgRNA targeting EIF2S1, GAGCGAAGCGCACGCTGAGG, SEQ ID NO: 136 (listed as DNA, chemistry not fully specified): 1123
BCR_+_23523092.23-P1P2_00: sgRNA targeting BCR, GCGCGCGGGGCCCGTCTCAG, SEQ ID NO: 125 (listed as DNA, chemistry not fully specified): 2250
RAN_+_131356438.23-P1P2_03: sgRNA targeting RAN, GGGGGTCGCTGCGCTTAGGG, SEQ ID NO: 71 (listed as DNA, chemistry not fully specified): 6698
HSPA9_−_137911079.23-P1P2_00: sgRNA targeting HSPA9, GGAGCTGCGCGATGCGGTGG, SEQ ID NO: 131 (listed as DNA, chemistry not fully specified): 944
non-targeting_00217: non-targeting negative control sgRNA, GTGAACTCAAAAATCCCGAC, SEQ ID NO: 165 (listed as DNA, chemistry not fully specified) [reference compound]: 25185

List Perturb-seq pooled growth sgRNA counts, d5 for every entry below, keeping the order given.
1. DBR1_+_137893744.23-P1P2_07: sgRNA targeting DBR1, GTTTGCAGGGGTCTACACCC, SEQ ID NO: 80 (listed as DNA, chemistry not fully specified)
2. RPS15_−_1438413.23-P1P2_07: sgRNA targeting RPS15, GACCAAAGCGGTCTCTTCTG, SEQ ID NO: 61 (listed as DNA, chemistry not fully specified)

A)
[4894, 3595]

// for each substance in input: emit Perturb-seq pooled growth sgRNA counts, d5
1. GATA1_−_48645022.23-P1P2_00: sgRNA targeting GATA1, GTGAGCTTGCCACATCCCCA, SEQ ID NO: 119 (listed as DNA, chemistry not fully specified)
2. DBR1_+_137893744.23-P1P2_01: sgRNA targeting DBR1, GATTGCAGGAGTCTACACCC, SEQ ID NO: 79 (listed as DNA, chemistry not fully specified)

A)
[955, 5512]
